Target protein (sequence): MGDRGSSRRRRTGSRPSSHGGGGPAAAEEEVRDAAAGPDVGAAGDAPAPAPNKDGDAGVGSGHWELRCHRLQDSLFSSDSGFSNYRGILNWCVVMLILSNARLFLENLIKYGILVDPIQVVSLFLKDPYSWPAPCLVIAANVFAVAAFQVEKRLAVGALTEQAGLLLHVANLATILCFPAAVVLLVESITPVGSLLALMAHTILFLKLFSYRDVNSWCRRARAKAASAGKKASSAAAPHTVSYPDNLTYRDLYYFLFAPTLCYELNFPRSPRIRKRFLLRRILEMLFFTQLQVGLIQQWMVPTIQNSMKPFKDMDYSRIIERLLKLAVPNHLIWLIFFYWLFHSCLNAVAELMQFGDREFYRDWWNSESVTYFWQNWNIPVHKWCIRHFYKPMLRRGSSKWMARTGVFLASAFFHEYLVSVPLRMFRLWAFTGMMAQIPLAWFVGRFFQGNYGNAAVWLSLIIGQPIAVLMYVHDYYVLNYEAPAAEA
parameterMeasured: IC50

>>> print(df.to_string())
                                    compound  observedvalue
 0  Cc1nc(N)c2c(n1)OC(C)(C)C(c1ccc([C@H]3CC[C@H](CNC(N)=O)CC3)cc1)=N2   10 to 100 nM
 1  Cc1nc(N)c2c(n1)OC(C)(C)C(c1ccc([C@H]3CC[C@H](CN4CCNC4=O)CC3)cc1)=N2       > 100 nM
 2  CC1(C)Oc2ncnc(N)c2N=C1c1ccc([C@H]2CC[C@H](NC(=O)CO)CC2)cc1   10 to 100 nM
 3  Cc1nc(N)c2c(n1)OC(C)(C)C(c1ccc([C@H]3CC[C@H](CN4CC(C)(C)C(O)C4=O)CC3)cc1)=N2 (stereo partly shown)   10 to 100 nM
 4   CC1(C)Oc2ncnc(N)c2N=C1c1ccc(N2CCCC2)cc1       > 100 nM
 5  Cc1nc(N)c2c(n1)OC(C)(C)C(c1ccc([C@H]3CC[C@H](CC(=O)O)CC3)c(C)c1)=N2   10 to 100 nM
 6  Cc1nc(N)c2c(n1)OC(C)(C)C(c1ccc([C@H]3CC[C@H](CC(=O)O)CC3)c(F)c1)=N2        < 10 nM
 7  CC(=O)N[C@H]1CC[C@H](c2ccc(C3=Nc4c(N)ncnc4OC3(C)C)cc2)CC1   10 to 100 nM
 8  Cc1nc(N)c2c(n1)OC(C)(C)C(c1ccc([C@H]3CC[C@H](CN4CCC(O)C4=O)CC3)cc1)=N2 (stereo partly shown)   10 to 100 nM
 9  CC1(C)Oc2ncnc(N)c2N=C1c1ccc([C@H]2CC[C@H](CC3SC(=O)NC3=O)CC2)cc1 (stereo partly shown)   10 to 100 nM
10  Cc1nc(N)c2c(n1)OC(C)(C)C(c1ccc([C@H]3CC[C@H](Cc4cc(O)n(C)n4)CC3)cc1)=N2   10 to 100 nM
11  CC1(C)Oc2ncnc(N)c2N=C1c1ccc([C@H]2CC[C@H](CCN3CCC(O)CC3)CC2)cc1       > 100 nM
12  CC1(C)Oc2ncnc(N)c2N=C1c1ccc([C@H]2CC[C@H](CCc3cc(O)[nH]n3)CC2)cc1   10 to 100 nM
13  Cc1ccc(S(=O)(=O)NCC[C@H]2CC[C@H](c3ccc(C4=Nc5c(N)ncnc5OC4(C)C)cc3)CC2)cc1   10 to 100 nM
14  CCNC(=O)NC[C@H]1CC[C@H](c2ccc(C3=Nc4c(N)nc(C)nc4OC3(C)C)cc2Cl)CC1        < 10 nM
15  CC1(C)Oc2ncnc(N)c2N=C1c1ccc([C@H]2CC[C@H](C(=O)NC(CO)C(=O)O)CC2)cc1 (stereo partly shown)   10 to 100 nM

Source: patent US7244727B2
